assay: RPL19A-GFP modulators, yeast TOR pathway, confirmation, cell-based, S. cerevisiae, flow cytometry, cherry picks, mother/daughter gates (AID 2270); details: S. cerevisiae RPL19A-GFP strain, 3 h, measured here: mother cell gate, at 10 µM, stronger effect = lower value, 100 = same GFP as DMSO wells
# maps each entry to its GFP response vs DMSO

[
  {
    "smiles_code": "O=c1oc2ccccc2c(O)c1[C@H]1c2ccc(O)cc2Oc2c1c(=O)oc1ccccc21",
    "GFP response vs DMSO (%)": 98.9
  },
  {
    "smiles_code": "O=C1/C(=C\\c2ccc(Cl)c(Cl)c2)N2CCC1CC2",
    "GFP response vs DMSO (%)": 99.1
  },
  {
    "smiles_code": "O=C1NC(=O)N(c2ccccc2)C(=O)/C1=C/c1ccc(Sc2ccccc2)o1",
    "GFP response vs DMSO (%)": 95.2
  },
  {
    "smiles_code": "CC12CN3CC(C)(CN(C1)C31CCOCC1)C2=O",
    "GFP response vs DMSO (%)": 96.6
  },
  {
    "smiles_code": "C#C[C@]1(O)CC[C@H]2[C@@H]3CCC4=CC(=O)CC[C@]4(C)[C@H]3CC[C@@]21C",
    "GFP response vs DMSO (%)": 95.6
  }
]
